List of Corn plant response rating values.
Tested on: corn
Experiment: Test B pre/postemergence corn
Format: in vivo, Zea mays
Settings: Preemergence, Rate 250 g/ha; scale 0 to 10, 0 is no effect, 10 is complete control
Just the number, please.

These solved cases illustrate the format of a correct answer.
1) CC(C)N(C(=O)n1oc(=O)n([C@@H](C)c2ccccc2)c1=O)c1ccc(Cl)cc1	0
2) COC(C)n1c(=O)on(C(=O)N(c2ccccc2)C(C)C)c1=O (stereo not drawn)	0

Attention now turns to another entry.
Reported Corn plant response rating of `CC(C)N(C(=O)n1oc(=O)n(C[Si](C)(C)c2ccccc2)c1=O)c1ccc(Cl)cc1` : 0

###

Test system: cocklebur
Assay: Test B pre/postemergence cocklebur
Assay type: in vivo, Xanthium strumarium
Conditions: Postemergence, Rate 250 g/ha; scale 0 to 10, 0 no effect, 10 complete control
PROPERTY: Cocklebur plant response rating

1. CC(C)N(C(=O)n1oc(=O)n(Cc2ccccc2)c1=O)c1ccc(F)cc1F	2
2. CCN(CC)C(=O)n1oc(=O)n(-c2c(C)cccc2C)c1=O	0
3. CCN(C(=O)n1oc(=O)n(-c2ccccc2OC)c1=O)C1CCCCC1	0
4. COc1ccccc1Cn1c(=O)on(C(=O)N(c2ccccc2)C(C)C)c1=O	2

The reported cocklebur Cocklebur plant response rating of `CC(C)N(C(=O)n1oc(=O)n(C2CCCCC2)c1=O)c1ccccc1` is 2

###

Tested on: wild oat
Experiment: Test E wild oat
Format: in vivo, Avena fatua
Details: Preemergence; Rate 500 g/ha; 0 to 100 scale where 0 is no effect and 100 is complete control
Examples of compounds with documented Plant response rating, Wild oat follow.

For orientation, consider the following solved cases.
1. Cc1cccc(C)c1-n1c(=O)on(C(=O)N(C(C)C)C2C=CCCC2)c1=O (stereo not shown)	70
2. CC(C)N(C(=O)n1oc(=O)n([C@@H](C)c2ccccc2)c1=O)c1ccc(Cl)cc1	40
3. CC(C)N(C(=O)n1oc(=O)n(C2CC2)c1=O)c1ccc(F)cc1	100

// `CC(=O)OCCCCn1c(=O)on(C(=O)N(c2ccc(F)cc2)C(C)C)c1=O` : Plant response rating, Wild oat value = 40

###

Tested on: sugar beet
Assay: Test B pre/postemergence sugar beet
Format: in vivo, Beta vulgaris
Details: Rate 125 g/ha, Postemergence; scale 0 to 10
PROPERTY: Sugarbeets plant response rating
Could you respond with only the numeric value?

Some molecules with known Sugarbeets plant response rating results, for comparison:
1) CC(C)N(C(=O)n1oc(=O)n(Cc2ccco2)c1=O)c1ccc(Cl)cc1	0
2) CC(C)N(C(=O)n1oc(=O)n(-c2cccnc2)c1=O)c1ccccc1	0
3) CC(=O)OCCCCn1c(=O)on(C(=O)N(c2ccc(F)cc2)C(C)C)c1=O	2

As a next step, examine the molecule that follows.
Value of measured Sugarbeets plant response rating for the entry `CC(C)N(C(=O)n1oc(=O)n(-c2cccnc2)c1=O)c1ccc(F)cc1` : 0

###

Test system: blackgrass
Test: Test B pre/postemergence blackgrass
Format: in vivo, Alopecurus myosuroides
Settings: Preemergence, Rate 125 g/ha; 0 is no effect, 10 is complete control
PROPERTY: Blackgrass plant response rating (0 to 10 scale)
API doc: respond with a numeric literal and nothing else, no unit.

Examples with answers:
1) CC(C)N(C(=O)n1oc(=O)n(N(C)C)c1=O)c1ccc(F)cc1	10
2) CC(C)N(C(=O)n1oc(=O)n([C@@H](C)c2ccccc2)c1=O)c1ccc(Cl)cc1	2

Sample `CC(C)N(C(=O)n1oc(=O)n(-c2cnn(C)c2)c1=O)c1ccccc1` , system: blackgrass. Its Blackgrass plant response rating (0 to 10 scale) is 0

###

Tested on: velvetleaf
Experiment: Test B pre/postemergence velvetleaf
Assay type: in vivo, Abutilon theophrasti
Details: Preemergence, Rate 125 g/ha; scale of 0 to 10 where 0 is no effect and 10 is complete control
Recorded Plant response rating, Velvetleaf for the following compounds
No unit in the answer, please; the number alone is enough.

Field: example entries. Status: answers known.
1. CC(=O)C(C)n1c(=O)on(C(=O)N(c2ccc(F)cc2)C(C)C)c1=O (stereo not shown)	0
2. CC(C)N(C(=O)n1oc(=O)n(C(C)C(=O)N(C)C)c1=O)c1ccc(F)cc1F (stereo not shown)	0
3. C=CC(CC)n1c(=O)on(C(=O)N(c2ccccc2)C(C)C)c1=O (stereo not shown)	4

Documented Plant response rating, Velvetleaf of C#CC(CC)n1c(=O)on(C(=O)N(c2ccc(F)cc2)C(C)C)c1=O (stereo not shown) : 0

###

System: rape
Test: Test B pre/postemergence rape
Format: in vivo, Brassica napus
Details: Preemergence, Rate 125 g/ha; scale 0 to 10 (0 no effect, 10 complete control)
PROPERTY: Plant response rating, Rape
// response body must contain only the number

1. COc1ccccc1Cn1c(=O)on(C(=O)N(c2ccccc2)C(C)C)c1=O	0
2. Cc1ccccc1-n1c(=O)on(C(=O)N(c2ccc(F)c(F)c2)C(C)C)c1=O	0
3. CC(C)N(C(=O)n1oc(=O)n(C2CCCCC2)c1=O)c1ccccc1	0
4. CC(C)N(C(=O)n1oc(=O)n(Cc2ccccc2)c1=O)c1ccc(F)cc1F	0
5. Cc1cccc(C(C)C)c1-n1c(=O)on(C(=O)N(c2ccc(F)cc2)C(C)C)c1=O	0

Value of Plant response rating, Rape reported for the molecule `CC(C)N(C(=O)n1oc(=O)n(-c2ccccc2)c1=O)c1ccc(F)cc1` is 0

###

Test system: bamyardgrass
Assay: Test B flood test barnyardgrass
Type: in vivo, Echinochloa crus-galli
Settings: Rate 500 g/ha, Postemergence section of Table B; 0 to 10 scale (0 no effect, 10 complete control)
Entries and their Barnyardgrass plant response rating
Response field accepts a number only; no unit should be typed.

The value of Barnyardgrass plant response rating measured for the molecule CCN(CC)C(=O)n1oc(=O)n(-c2cc(Cl)cc(Cl)c2)c1=O [Compound 11] turned out to be 0

Briefly, Barnyardgrass plant response rating measured for CC(C)N(C(=O)n1oc(=O)n(-c2ccc(Cl)cc2Cl)c1=O)c1ccc(F)cc1 [Compound 7] : 0

Lab book: Barnyardgrass plant response rating of CCN(CC)C(=O)n1oc(=O)n(-c2c(C)cccc2C)c1=O [Compound 2] noted as 0

GET /value?item= CC(C)N(C(=O)n1oc(=O)n(-c2c(Cl)cccc2Cl)c1=O)c1ccc(F)cc1 [Compound 19] &field=Barnyardgrass plant response rating returns 0

Consider CCN(C(=O)n1oc(=O)n(-c2ccccc2OC)c1=O)C1CCCCC1 [Compound 29] . Its measured Barnyardgrass plant response rating is 0

###

We begin with a simple list: items and their reported Crabgrass plant response rating.
Tested on: crabgrass
Assay: Test B pre/postemergence crabgrass
Format: in vivo, Digitaria sanguinalis
Conditions: Postemergence, Rate 250 g/ha; scale 0 to 10

1) C=CC(CC)n1c(=O)on(C(=O)N(c2ccccc2)C(C)C)c1=O (stereo not drawn) [Compound 455]	4
2) CC(C)N(C(=O)n1oc(=O)n(CC2=NCCO2)c1=O)c1ccccc1 [Compound 495]	0
3) CC(C)N(C(=O)n1oc(=O)n(C(C)C(=O)N(C)C)c1=O)c1ccc(F)cc1 (stereo not drawn) [Compound 478]	8
4) CC(C)C(=O)Cn1c(=O)on(C(=O)N(c2ccccc2)C(C)C)c1=O [Compound 485]	7

# Crabgrass plant response rating of CC(C)N(C(=O)n1oc(=O)n(C(C)C(=O)N(C)C)c1=O)c1ccc(F)cc1F (stereo not drawn) [Compound 481] = 2

// Crabgrass plant response rating lookup, compound = CC(Cl)=CCn1c(=O)on(C(=O)N(c2ccc(F)cc2F)C(C)C)c1=O [Compound 514] , result: 9

###

Test system: duck salad
Test: Test B flood test duck salad
Type: in vivo, Heteranthera limosa
Conditions: Rate 500 g/ha, listed under Postemergence (flood test species); scale 0 to 10
PROPERTY: Ducksalad plant response rating

Examples with their reported Ducksalad plant response rating follow.
1) CCN(CC)C(=O)n1oc(=O)n(Cc2ccccc2)c1=O	0
2) CC(C)N(C(=O)n1oc(=O)n(N(C)C)c1=O)c1ccc(F)cc1	0
3) Cc1nsc(C)c1-n1c(=O)on(C(=O)N(c2ccc(Cl)cc2)C(C)C)c1=O	0

Continue with the next molecule.
GET /value?item= `C=CCn1c(=O)on(C(=O)N(c2ccc(F)cc2)C2CC2)c1=O` &field=Ducksalad plant response rating returns 0

###

System: rape
Experiment: Test B pre/postemergence rape
Type: in vivo, Brassica napus
Conditions: Postemergence, Rate 62 g/ha; scale 0 to 10, 0 is no effect, 10 is complete control
Procedure: […] At the same time, these crop and weed species were also treated with postemergence applications of test chemicals formulated in the same manner. […] Treated plants and controls were maintained in a greenhouse for twelve to sixteen days, after which all species were compared to controls and visually evaluated. […]
PROPERTY: Plant response rating, Rape

The cases that follow already have their Plant response rating, Rape on record.
1) C#CC(C=C(C)C)n1c(=O)on(C(=O)N(c2ccccc2)C(C)C)c1=O (stereo not drawn)	0
2) CCC(C)n1c(=O)on(C(=O)N(c2ccccc2)C(C)C)c1=O (stereo not drawn)	0
3) CC(C)N(C(=O)n1oc(=O)n(CCF)c1=O)c1ccc(Cl)cc1	2
4) COCCn1c(=O)on(C(=O)N(c2ccccc2)C(C)C)c1=O	0
5) CCOC(CC)n1c(=O)on(C(=O)N(c2ccc(F)cc2F)C(C)C)c1=O (stereo not drawn)	0

Now consider a different compound.
`CC(C)N(C(=O)n1oc(=O)n(CCF)c1=O)c1ccc(F)cc1F` on rape gives Plant response rating, Rape = 0
